The reported measurements were obtained from patent US20250346593A1.

target: GST-RIPK2 fusion protein (human RIPK2 amino acids 1-310) (Homo sapiens (Human)); assay: RIPK2 binding competition assay (TR-FRET, Tracer 199)
Sequence (O43353 1-310): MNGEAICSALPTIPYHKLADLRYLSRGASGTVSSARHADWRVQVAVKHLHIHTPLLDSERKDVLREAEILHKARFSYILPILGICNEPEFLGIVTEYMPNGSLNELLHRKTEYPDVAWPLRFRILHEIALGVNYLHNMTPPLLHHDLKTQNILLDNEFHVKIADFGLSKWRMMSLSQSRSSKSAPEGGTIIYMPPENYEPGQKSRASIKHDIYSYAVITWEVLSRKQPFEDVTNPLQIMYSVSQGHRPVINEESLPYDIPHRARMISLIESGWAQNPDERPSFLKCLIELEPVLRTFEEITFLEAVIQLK
pIC50: −log10 of the molar value.
Reported pIC50 values for a set of compounds

[
  {
    "Compound": "COc1cc2ncc(-c3cc(C#N)c(N)cc3F)n2cc1S(=O)(=O)C(C)(C)C",
    "Measured On": "GST-RIPK2 fusion protein (human RIPK2 amino acids 1-310) (Homo sapiens (Human))",
    "pIC50": "7.70 to 8.60"
  },
  {
    "Compound": "COc1cc2ncc(-c3ccc(N)c(F)c3)n2cc1S(=O)(=O)C(C)(C)C",
    "Measured On": "GST-RIPK2 fusion protein (human RIPK2 amino acids 1-310) (Homo sapiens (Human))",
    "pIC50": "7.70 to 8.60"
  },
  {
    "Compound": "COc1cc2ncc(-c3cc(F)c(OC)c(OCCCO)c3)n2cc1S(=O)(=O)C(C)(C)C",
    "Measured On": "GST-RIPK2 fusion protein (human RIPK2 amino acids 1-310) (Homo sapiens (Human))",
    "pIC50": "7.70 to 8.60"
  },
  {
    "Compound": "COc1cc2ncc(-c3cc(F)c(OC)c(NCCCO)c3)n2cc1S(=O)(=O)C(C)(C)C",
    "Measured On": "GST-RIPK2 fusion protein (human RIPK2 amino acids 1-310) (Homo sapiens (Human))",
    "pIC50": "8.60 to 9.00"
  },
  {
    "Compound": "CCCS(=O)(=O)Nc1cc(OC(F)(F)F)cc(-c2cnc3cc(OC)c(S(=O)(=O)C(C)(C)C)cn23)c1",
    "Measured On": "GST-RIPK2 fusion protein (human RIPK2 amino acids 1-310) (Homo sapiens (Human))",
    "pIC50": "7.70 to 8.60"
  }
]

Lab note: need pIC50 for CCCS(=O)(=O)Nc1cc(-c2cnc3cc(OC)c(S(=O)(=O)C(C)(C)C)cn23)cc(OC)c1C on GST-RIPK2 fusion protein (human RIPK2 amino acids 1-310) (Homo sapiens (Human)), anyone have it?
7.70 to 8.60

---

system: NF-κB pathway (SEAP) in THP1-Dual cells; assay: THP-1 Dual cell SEAP assay (L18-MDP stimulated); type: cell-based; settings: Homo sapiens, THP1-Dual, read-out: NFkB THP1 IC50
pIC50: −log10 of the molar value.
Measure Name: pIC50

[
  {
    "Record Smiles": "COc1cc2ncc(-c3cc(F)nc(NC(C)(C)CO)c3)n2cc1S(=O)(=O)C(C)(C)C",
    "pIC50": "6.60 to 7.30"
  },
  {
    "Record Smiles": "COc1cc2ncc(-c3cc(F)nc(NCCCO)c3)n2cc1S(=O)(=O)C(C)(C)C",
    "pIC50": "> 7.30"
  },
  {
    "Record Smiles": "COc1cc2ncc(-c3cnc(N)c(OC(F)(F)F)c3)n2cc1S(=O)(=O)C(C)(C)C",
    "pIC50": "< 6.00"
  },
  {
    "Record Smiles": "COc1cc2ncc(-c3cc(C)c(N)nc3F)n2cc1S(=O)(=O)C(C)(C)C",
    "pIC50": "6.00 to 6.60"
  },
  {
    "Record Smiles": "COc1cc2ncc(-c3cc(F)c(N)c(C)c3F)n2cc1S(=O)(=O)C(C)(C)C",
    "pIC50": "6.60 to 7.30"
  }
]

I would be grateful if you could share the reported pIC50 for COc1cc2ncc(-c3ccc(N(C)C)nc3F)n2cc1S(=O)(=O)C(C)(C)C .
< 6.00

CCCNc1cc(-c2cnc3cc(OC)c(S(=O)(=O)C(C)(C)C)cn23)cc(F)n1 ?
> 7.30

CCCS(=O)(=O)Nc1cc(-c2cnc3cc(OC)c(S(=O)(=O)C(C)(C)C)cn23)cc(OC)c1F ?
6.00 to 6.60
